Data origin, for the record: paper PMC9733678

- PROTOCOL SUMMARY: Water sorption analysis of amorphous lumefantrine salts (DVS)
- Assay type: physicochemical
- EXPERIMENTAL CONDITIONS: neat amorphous salt, 95% RH
PARAMETER MEASURED: weight gain (water sorption)

COMPOUND	PARAMETER MEASURED	MEASURED VALUE
CCCCN(CCCC)CC(O)c1cc(Cl)cc2c1-c1ccc(Cl)cc1C2=Cc1ccc(Cl)cc1.O=S(=O)(O)c1ccccc1 (stereo not drawn) [besylate salt, Lumefantrine besylate]	weight gain (water sorption)	< 2%
CCCCN(CCCC)CC(O)c1cc(Cl)cc2c1-c1ccc(Cl)cc1C2=Cc1ccc(Cl)cc1.Cc1ccc(S(=O)(=O)O)cc1 (stereo not drawn) [tosylate salt, Lumefantrine tosylate]	weight gain (water sorption)	< 2%
CCCCN(CCCC)CC(O)c1cc(Cl)cc2c1-c1ccc(Cl)cc1/C2=C/c1ccc(Cl)cc1.O=C(O)c1ccccc1 (stereo not drawn) [benzoate salt, Lumefantrine benzoate]	weight gain (water sorption)	< 2%
CCCCN(CCCC)CC(O)c1cc(Cl)cc2c1-c1ccc(Cl)cc1C2=Cc1ccc(Cl)cc1.Cl (stereo not drawn) [HCl salt, Lumefantrine HCl]	weight gain (water sorption)	< 2%
CCCCN(CCCC)CC(O)c1cc(Cl)cc2c1-c1ccc(Cl)cc1/C2=C/c1ccc(Cl)cc1.CCCCN(CCCC)CC(O)c1cc(Cl)cc2c1-c1ccc(Cl)cc1/C2=C/c1ccc(Cl)cc1.O=S(=O)(O)O (stereo not drawn) [sulfate salt, Lumefantrine sulfate]	weight gain (water sorption)	3.3%

Okay, next one:
Lab note: CC1(C)[C@@H]2CC[C@@]1(CS(=O)(=O)O)C(=O)C2.CCCCN(CCCC)CC(O)c1cc(Cl)cc2c1-c1ccc(Cl)cc1/C2=C/c1ccc(Cl)cc1 (stereo not drawn) [camsylate salt, Lumefantrine camsylate] gave weight gain (water sorption) of < 2%
